B1: INTS3 (parent)
chain: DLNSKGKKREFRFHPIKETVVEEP

Variants of: B1
Assay: protein stability index of a GFP-peptide fusion (GPS, HEK-293T) (PSI 1-6); higher = more stable;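 note: lentivirally expressed fusions sorted by FACS into six bins by GFP to DsRed ratio, PSI derived from sequencing read proportions per bin multiplied by bin number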
Details: c terminus: a fixed tail appended
This section presents variants with their documented protein stability index values.
Parameter: protein stability index

Sequence Data	Parameter	Recorded Value
DLNSKGKKYEFRFHPIKETVVEEP [R9Y]	protein stability index	2.31
DLNSMGKKREFRFHPIKETVVEEP [K5M]	protein stability index	2.05
DLNSKGFKREFRFHPIKETVVEEP [K7F]	protein stability index	1.72
DLNSKGVKREFRFHPIKETVVEEP [K7V]	protein stability index	2.54
DLNSKGKKRNFRFHPIKETVVEEP [E10N]	protein stability index	2.58
DLNSKGKKHEFRFHPIKETVVEEP [R9H]	protein stability index	1.79
GLNSKGKKREFRFHPIKETVVEEP [D1G]	protein stability index	2.23
DLNKKGKKREFRFHPIKETVVEEP [S4K]	protein stability index	2.08
DLNSKGKKREFRFHPIKETEVEEP [V20E]	protein stability index	2.54
DLNSKVKKREFRFHPIKETVVEEP [G6V]	protein stability index	2.56
DYNSKGKKREFRFHPIKETVVEEP [L2Y]	protein stability index	1.89
DLNSKCKKREFRFHPIKETVVEEP [G6C]	protein stability index	2.23
DLNSKGKKREFRFHPIKETVVEEW [P24W]	protein stability index	2.84
DLNSKGKKREFRKHPIKETVVEEP [F13K]	protein stability index	4.06
DLNSTGKKREFRFHPIKETVVEEP [K5T]	protein stability index	2.39
DLNSKGKKREFRPHPIKETVVEEP [F13P]	protein stability index	4.48
DLNSLGKKREFRFHPIKETVVEEP [K5L]	protein stability index	2.07
DLNSKGKKREFRFHPIKETVVEER [P24R]	protein stability index	2.19
DLNSKGKKREFHFHPIKETVVEEP [R12H]	protein stability index	4.2
DLNSKGKKREFRFHPIKPTVVEEP [E18P]	protein stability index	2.19
DLNSKGKKTEFRFHPIKETVVEEP [R9T]	protein stability index	2.56
DLNSKGKKREFRFHPIQETVVEEP [K17Q]	protein stability index	3.01
DMNSKGKKREFRFHPIKETVVEEP [L2M]	protein stability index	1.81
DLNSKGKKREFRFLPIKETVVEEP [H14L]	protein stability index	4.01
DLNIKGKKREFRFHPIKETVVEEP [S4I]	protein stability index	2.12
DLNSKGKKREARFHPIKETVVEEP [F11A]	protein stability index	3.95
DLNSKGKKREFRFHPNKETVVEEP [I16N]	protein stability index	3.04
DLNSKGKKKEFRFHPIKETVVEEP [R9K]	protein stability index	3.07
DLNSGGKKREFRFHPIKETVVEEP [K5G]	protein stability index	2.54
DLNSKGKRREFRFHPIKETVVEEP [K8R]	protein stability index	1.52
DLNSKGKKREFRFHPIKETVVEEI [P24I]	protein stability index	1.68
DLNSKGKKRCFRFHPIKETVVEEP [E10C]	protein stability index	2.97
DLNSKSKKREFRFHPIKETVVEEP [G6S]	protein stability index	2.03
DLNSKGKKCEFRFHPIKETVVEEP [R9C]	protein stability index	2.31
DLNSKGKKREFRFHPIKETVVEET [P24T]	protein stability index	2.38
YLNSKGKKREFRFHPIKETVVEEP [D1Y]	protein stability index	1.67
DLNSKGKKRIFRFHPIKETVVEEP [E10I]	protein stability index	1.78
DLNSKGKKREFRFHPIKHTVVEEP [E18H]	protein stability index	2.13
DLNSKGKKRQFRFHPIKETVVEEP [E10Q]	protein stability index	1.87

meta.source: the supplement of paper PMC10567573
